# assay_method_text: Half-life in the culture medium (RPMI 1640+10% fetal calf serum FCS)
# Assay type: ADME, cell-free, Bos taurus
# details: cattle
As shown below, each of these molecules has a reported half-life value.
Your answer should be a plain number; it is taken to be in h.

molecule	numeric_value
Cc1cn(-c2cc(O)c(COP(=O)(Oc3cc(-n4cc(C)c(=O)[nH]c4=O)oc3CO)SCOC(=O)C(C)(C)C)o2)c(=O)[nH]c1=O (stereo not drawn)	6

Which measured half-life value corresponds to CC(=O)SCSP(=O)(OCc1oc(-n2cc(C)c(=O)[nH]c2=O)cc1O)Oc1cc(-n2cc(C)c(=O)[nH]c2=O)oc1CO (stereo not drawn) ? 1

How about this molecule: CC(=O)SCCSP(=O)(OCc1oc(-n2cc(C)c(=O)[nH]c2=O)cc1O)Oc1cc(-n2cc(C)c(=O)[nH]c2=O)oc1CO (stereo not drawn) 7
